B1: Caulobacter ParB omega fusion; a variant is named by its letters at X, in order, B8GW30 (parent)
chain: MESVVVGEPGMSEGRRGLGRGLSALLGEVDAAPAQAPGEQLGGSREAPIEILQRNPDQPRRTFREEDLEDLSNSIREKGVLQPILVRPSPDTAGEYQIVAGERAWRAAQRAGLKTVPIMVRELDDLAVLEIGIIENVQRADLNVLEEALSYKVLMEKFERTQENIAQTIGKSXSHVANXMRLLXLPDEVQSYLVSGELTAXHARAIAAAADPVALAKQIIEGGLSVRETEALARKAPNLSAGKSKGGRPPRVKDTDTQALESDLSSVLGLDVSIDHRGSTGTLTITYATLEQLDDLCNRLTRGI

Variants of: B1
ASSAY_DETAILS: one-hybrid fitness for binding parS DNA (scaled: cognate 1, non-cognate 0); higher = stronger binding
DETAILS: with parS DNA site
The full ranking holds about 81,000 sequences; the median of “one-hybrid fitness for binding parS DNA” is about -0.17, and the highest 2% start at about 0.51. This excerpt belongs to a sample that is enriched for the highest values.
MEASURED_QUANTITY: one-hybrid fitness for binding parS DNA
Form field (numeric): enter value without unit.

VARIANT_SPEC | MEASURED_QUANTITY | RESULT_VALUE
RNRC | one-hybrid fitness for binding parS DNA | 0.893
RNIC | one-hybrid fitness for binding parS DNA | 0.523

Proceed to the following item.
Field one-hybrid fitness for binding parS DNA (entry RYVG ) reads 0.899

# credit: a collection of fitness landscapes (doi:10.1016/j.celrep.2020.107928)
